meta.source: the RNAGym collection of RNA variant scans (doi:10.7554/elife.90254)

B1: LINE1-mini (parent)
chain: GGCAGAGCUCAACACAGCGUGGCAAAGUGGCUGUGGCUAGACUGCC

- Variants of: B1
- protocol: self-cleavage, relative activity (ratio to wild type); higher = more cleavage; in vitro, sequencing; the parent is a self-cleaving ribozyme
self-cleavage: recorded values
Give the figure by itself; no unit, no explanation.

Here's what some known entries look like.
{"variant.spec": "A4C C37G", "self-cleavage": 0.05}
{"variant.spec": "U28C A41G", "self-cleavage": 0.43}
{"variant.spec": "G1U G27U", "self-cleavage": 0.25}
{"variant.spec": "G2C G7U", "self-cleavage": 0.28}
{"variant.spec": "C23U G36A", "self-cleavage": 0.14}
{"variant.spec": "C10G G40A", "self-cleavage": 0.01}
{"variant.spec": "A4U C13G", "self-cleavage": 0.1}
{"variant.spec": "A14C A24G", "self-cleavage": 0.07}
{"variant.spec": "G1A G40A", "self-cleavage": 0.11}
{"variant.spec": "A4U G33C", "self-cleavage": 0.09}

Find the measured self-cleavage of C31A C42U and report it.
0.05

Find the measured self-cleavage of G19U C45U and report it.
1.38

Find the measured self-cleavage of G27C G44C and report it.
0.14

Find the measured self-cleavage of C8A A25C and report it.
0.45

Find the measured self-cleavage of G19A G22A and report it.
0.62
